Value source: patent US12121505B2

Target: DPP9 (Homo sapiens)
Sequence (Q86TI2 whole entry, species assumed): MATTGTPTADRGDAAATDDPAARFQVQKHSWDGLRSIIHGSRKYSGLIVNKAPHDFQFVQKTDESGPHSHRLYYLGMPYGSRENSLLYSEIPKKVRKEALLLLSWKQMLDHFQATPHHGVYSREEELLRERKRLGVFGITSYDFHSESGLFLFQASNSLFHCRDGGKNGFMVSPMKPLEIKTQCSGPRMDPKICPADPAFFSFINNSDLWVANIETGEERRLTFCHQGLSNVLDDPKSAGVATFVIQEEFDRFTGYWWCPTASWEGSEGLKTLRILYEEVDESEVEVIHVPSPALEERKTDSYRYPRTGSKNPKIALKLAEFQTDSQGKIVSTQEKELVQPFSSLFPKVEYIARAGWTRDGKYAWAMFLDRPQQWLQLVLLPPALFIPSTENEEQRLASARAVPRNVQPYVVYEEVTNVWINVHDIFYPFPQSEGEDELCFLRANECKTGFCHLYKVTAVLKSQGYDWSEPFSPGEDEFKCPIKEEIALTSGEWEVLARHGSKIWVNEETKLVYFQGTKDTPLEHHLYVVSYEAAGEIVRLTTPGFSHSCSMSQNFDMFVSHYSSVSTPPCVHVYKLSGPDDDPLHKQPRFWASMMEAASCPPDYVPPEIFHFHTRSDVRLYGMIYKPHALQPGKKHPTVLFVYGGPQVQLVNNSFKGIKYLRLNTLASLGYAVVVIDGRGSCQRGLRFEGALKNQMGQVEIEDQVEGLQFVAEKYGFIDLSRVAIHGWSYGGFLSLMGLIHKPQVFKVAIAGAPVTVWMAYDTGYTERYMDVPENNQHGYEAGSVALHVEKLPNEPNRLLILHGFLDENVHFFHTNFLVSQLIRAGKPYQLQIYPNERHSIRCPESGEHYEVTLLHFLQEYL
Readout name: pIC50
Just so you know, pIC50 here is -log10 of the concentration in molar units; reply with that number alone.

I am curious: what pIC50 value has been reported for CC(C)[C@H](NC(=O)OCc1ccc(NC(=O)[C@@H]2CC(F)(F)CN2C(=O)CNC(=O)c2ccnc3ccccc23)cc1)C(=O)N1CCC[C@H]1B(O)O [Compound 5181] ?
5.59

---

Test system: HEK-Mock cells
Assay: CellTiter-Blue cell viability assay with HEK-Mock cells
Assay type: cell-based
Conditions: Homo sapiens, 5157 assay, HEK-Mock; read-out: EC50 (prodrug alone)
Readout name: EC50

I am curious: what EC50 value has been reported for C[C@@H](NC(=O)c1ccncc1)C(=O)N1CCC[C@H]1C(=O)Nc1ccc(COC(=O)NC2(c3ccc(-c4nc5ccn6c(=O)[nH]nc6c5cc4-c4ccccc4)cc3)CCC2)cc1 [Compound 5157] ?
> 2500 nM

---

System: HEK-mFAP cells
Experiment: CellTiter-Blue cell viability assay with HEK-mFAP cells
Format: cell-based, Human
Details: Homo sapiens, 72 h, Akt inhibitor prodrugs, HEK-mFAP cells, 72 hour; read-out: EC50 (prodrug + 100 uM 5057-2)
Readout name: pEC50
Just so you know, pEC50 here is -log10 of the concentration in molar units; reply with that number alone.

Notebook entry, HEK-mFAP cells assay: pEC50 of `O=C(NC1(C(=O)N[C@@H](CCO)c2ccc(Cl)cc2)CCN(c2ncnc3[nH]ccc23)CC1)OCc1ccc(NC(=O)[C@@H]2CC(F)(F)CN2C(=O)CNC(=O)c2ccnc3ccccc23)cc1` = ?
5.24

---

Tested on: HEK-Mock cells
Test: CellTiter-Blue cell viability assay with HEK-Mock cells
Assay type: cell-based
Settings: Homo sapiens, 5157 assay, HEK-Mock; read-out: EC50 (prodrug + 100 uM 3099-15)
Readout name: EC50

I am curious: what EC50 value has been reported for C[C@@H](NC(=O)c1ccncc1)C(=O)N1CCC[C@H]1C(=O)Nc1ccc(COC(=O)NC2(c3ccc(-c4nc5ccn6c(=O)[nH]nc6c5cc4-c4ccccc4)cc3)CCC2)cc1 [Compound 5157] ?
> 2500 nM

---

Measured EC50 by item
Tested on: HEK-mFAP cells
Assay: CellTiter-Blue cell viability assay with HEK-mFAP cells
Format: cell-based, Human
Settings: Homo sapiens, 72 h, MK-2206 / Akt inhibitor prodrugs, HEK-mFAP cells, 72 hour incubation; read-out: EC50 (prodrug alone)
Hi! Could you send only the number? It should be in µM, unit omitted.

Answered cases to consult:
[
  {
    "Record smiles": "NCC(=O)NNc1ccc(C(=O)NCC(=O)N2CC(F)(F)C[C@H]2C(=O)Nc2ccc(COC(=O)NC3(c4ccc(-c5nc6ccn7c(=O)[nH]nc7c6cc5-c5ccccc5)cc4)CCC3)cc2)cn1",
    "Test system": "HEK-mFAP cells",
    "Readout name": "EC50",
    "Assay result": 2.6
  },
  {
    "Record smiles": "O=C(NC1(C(=O)N[C@@H](CCO)c2ccc(Cl)cc2)CCN(c2ncnc3[nH]ccc23)CC1)OCc1ccc(NC(=O)[C@@H]2CC(F)(F)CN2C(=O)CNC(=O)c2ccnc3ccccc23)cc1",
    "Test system": "HEK-mFAP cells",
    "Readout name": "EC50",
    "Assay result": 3
  }
]

Proceed to the following item.
I am curious: what EC50 value has been reported for `C[C@@H](NC(=O)c1ccnc2ccccc12)C(=O)N1CC(F)(F)C[C@H]1C(=O)Nc1ccc(COC(=O)NC2(c3ccc(-c4nc5ccn6c(=O)[nH]nc6c5cc4-c4ccccc4)cc3)CCC2)cc1` ?
4.6
